Target: AgHse1
Assay: SPOT peptide array binding signal intensity (averaged, normalized) (arbitrary units (background-subtracted, floor 0; scale differs between SH3 domains)); higher = stronger binding of the SH3 domain to the peptide
Entries are sorted into classes by SPOT peptide array binding signal intensity as follows: 0 = under 80, 1 = from 80 up to 800, 2 = 800 and over

| Binder | Discrete label |
| --- | --- |
| DDEDVPPQLPTRTKS | 0 |
| RKNRAPPQRPRFNRD | 1 |
| DRIRMFIRFPKFLLE | 2 |
| RKRRTHLRLPLIRSN | 2 |
| GQYRRTIVIPRRFFT | 1 |
| QPWTDQFEKLEKEVS | 0 |
| LLRRTIPKRPFYHVL | 2 |
| TKFRISLGLPVGAIM | 2 |
| ISRRRLPVIMHRLKM | 2 |
| MFLISPPASPPPEFD | 0 |
| SRQAIPPPVPNRPGG | 0 |
| FPGKKSPRLPHRNKK | 1 |
| FVLRYYILIPHEQWD | 2 |
| YHSRRHPLALGFKYV | 1 |
| LRIKRKPVQTFFEFI | 2 |
| QTMRQAPKRPDADVA | 1 |
| YSRKKLPVVLSKMTL | 1 |
| RKLRTVPGVPLIHLT | 0 |
| QFDLKMPSKPIHNLK | 1 |
| RRSKSLPITPKSIFN | 1 |
| NNNKMRPHLPPLSSG | 2 |
| NFLRLLIGLPSQNEL | 2 |
| IPSRPAPKPPSSASA | 0 |
| RRRDFGAPANKRPRR | 1 |
| AVPPPPPPPPLPESL | 0 |
| NRARYLPQNPDIIAG | 1 |
| RNNRPVPPPPPMRTT | 0 |
| GRLRPKRIAPWHLIQ | 1 |
| EREKALPPIPFTTTL | 0 |
